- Target Desc: T1, RC-Fc (human)
- T1 construct: Knob-in-hole heterodimer of the R chain and the C chain, human IgG1 Fc; expressed in 293 cells, purified on Protein A; also called RC-Fc fusion protein; reconstructed CGRP receptor extracellular region
- T1 sequence (chain, as listed by the source limits assumed, chain 1 of 2): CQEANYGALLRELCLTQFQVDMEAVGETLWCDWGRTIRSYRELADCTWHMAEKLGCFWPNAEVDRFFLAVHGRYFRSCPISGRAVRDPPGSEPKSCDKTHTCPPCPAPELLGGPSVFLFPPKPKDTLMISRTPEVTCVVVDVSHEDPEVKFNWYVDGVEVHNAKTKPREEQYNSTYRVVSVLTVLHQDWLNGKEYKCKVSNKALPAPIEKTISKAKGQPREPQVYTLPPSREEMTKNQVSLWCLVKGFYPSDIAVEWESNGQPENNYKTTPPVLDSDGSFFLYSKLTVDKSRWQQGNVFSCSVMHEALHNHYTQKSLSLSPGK
- T1 sequence (chain, as listed by the source limits assumed, chain 2 of 2): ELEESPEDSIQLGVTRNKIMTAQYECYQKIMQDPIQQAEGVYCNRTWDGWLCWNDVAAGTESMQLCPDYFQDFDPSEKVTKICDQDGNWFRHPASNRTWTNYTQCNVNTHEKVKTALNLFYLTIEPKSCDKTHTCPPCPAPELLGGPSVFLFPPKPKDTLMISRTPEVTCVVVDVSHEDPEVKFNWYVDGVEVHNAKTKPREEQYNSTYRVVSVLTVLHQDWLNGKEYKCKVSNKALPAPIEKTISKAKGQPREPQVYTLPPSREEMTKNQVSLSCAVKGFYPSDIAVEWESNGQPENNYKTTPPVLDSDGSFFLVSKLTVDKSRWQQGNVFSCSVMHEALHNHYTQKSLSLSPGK
- Assay Overview: ELISA, RC-Fc coated, VHH-His titrated, anti-His-HRP; Exp1
Recorded Metric: log10 of EC50 (log10 of the value in nM)

# Binder, log10 of EC50
rows = [
    ("A10-268-42 (VHH, Llama VHH with C-terminal 6xHis, expressed in 293 cells; also called B828603; 42wt) VHH: QVQLVESGGGLVQAGDSLRLSCAASGRTFSGYVMGWFRQAPGKEREFVAALRWSSSNTNYAASVKGRFTISRDYAKDTVYLQMNSLKPDDTAVYYCAAKRDRPYGSTWTPVAADYDTWGQGTQVTVSS", -1.60),
    ("A10-269-238 (VHH, Llama VHH with C-terminal 6xHis, expressed in 293 cells; also called N220505106) VHH: QVQLVESGGGLVQPGGSLRLSCAASGFTFGNYDMSWVRQAPGKGPEWVSGIAPAGTITRYADSVKGRFTISRDNAKNTLYLQMNSLKPEDTAVYRCAKGASWGQGTQVTVSS", -1.04),
    ("A10-268-5 (VHH, Llama VHH with C-terminal 6xHis, expressed in 293 cells; also called B828601) VHH: QVQLVESGGGLVQAGGSLRLSCAVSGRTVTTITMGWFRQAPGKEREFVASISWDGLSTGYQDSVKGRFTISRDNAKNTVYLQMNSLKPEDTAVYYCAAGDSLWSWSKVPANYAYWGQGTQVTVSS", -0.84),
    ("A10-269-172 (VHH, Llama VHH with C-terminal 6xHis, expressed in 293 cells; also called N220505104) VHH: EVQVVESGGGLVQAGGSLRLSCVSSESSFSINTMRWYRQAPGKERELVASINSASSTYYGDAVKGRFTISRVNAKNTVYLQMNSLKPEDTAVYFCNTHSVLASRDYWGQGTQVTVSS", -1.25),
    ("A10-268-76 (VHH, Llama VHH with C-terminal 6xHis, expressed in 293 cells; also called B828604) VHH: QVQLVESGGGLVPAGGSLNLSCAASGRTFSTYAMGWFRQAPGKEREFVATINWDNGRTYYADSVKGRFTISRDNAKNMVYLQMNSLKPEDTAVYYCAADKTAIFRTSVVPDDYDYWGQGTQVTVSS", -1.62),
    ("A10-269-385 (VHH, Llama VHH with C-terminal 6xHis, expressed in 293 cells; also called N220505107) VHH: EVQLVESGGGLVQAGGSLRVSCQASEISFSFHAMGWYRQAPGKQRELVARITSIGRTTYADFVKGRFTISRGNAKNTVYLQMNSLKPEDTAVYYCNAEPGRVNYEYWGQGTQVTVSS", -1.28),
    ("A10-268-103 (VHH, Llama VHH with C-terminal 6xHis, expressed in 293 cells; also called B828605) VHH: QVQLVESGGGLVQAGGSLRLSCVASGRTFSSYAMGWFRQAPGKEREFVSGITESGATTRYADSMRGRFIISRDNAQNTVYLEMNSLKPEDSAVYYCAASRFGITVPTAKGAYNYWGQGTQVTVSS", -0.43),
    ("A10-269-165 (VHH, Llama VHH with C-terminal 6xHis, expressed in 293 cells; also called N220505103) VHH: QVQLVESGGGLVQAGGSLRLSCAASRTWFSIGAMGWYRQAPGKQRELVATITSGSSTTYADAVKGRFTVSRDNAENTVYLQMNSLKPEDTAVYYCYTKSRRKPWDLENDYWGQGTQVTVSS", -1.01),
]
